RUN DESCRIPTION: pKa of epinephrine malonate salt Form A (general description)
Assay type: physicochemical
CONDITIONS USED: no method given

COMPOUND	pKa
CNC[C@H](O)c1ccc(O)c(O)c1 [Form A, epinephrine malonate]	5.47

----------
RUN DESCRIPTION: Water solubility of epinephrine malonate salt (general description)
Assay type: physicochemical
CONDITIONS USED: water; no method given

MOLECULE	solubility
CNC[C@H](O)c1ccc(O)c(O)c1 [Form A, epinephrine malonate]	≥ 1140 mg/mL
